- MEASURED ON: human V2 receptor (Homo sapiens)
- Construct: expressed in transfected cells; host or cells: CHO K1 (ATCC) expressing firefly luciferase under a CRE-responsive promoter
- METHOD DESCRIPTION: Cellular in vitro assay for determining vasopressin receptor activity, V2 receptor cell line (CHO, CRE-luciferase)
- Format: cell-based
- ASSAY SETUP: CHO cell line transfected with human V2 receptor; [Arg8]-vasopressin at EC50 concentration, 3 hours; read-out: IC50 hV2
IC50 less than 600 nM is Condition met; IC50 greater than or equal to 600 nM is Condition not met.

Reference set, count: 3
O=C(NCC(O)CO)c1ccccc1-n1cnc(Cn2nc(-c3ccc(Cl)cc3)n(C[C@H](O)C(F)(F)F)c2=O)n1 (mixture of isomers) [Example 297]
Condition not met
O=C(Nc1ncccc1-n1cnc(Cn2nc(-c3ccc(Cl)cc3)n(C[C@H](O)C(F)(F)F)c2=O)n1)c1cnccn1 [Example 104]
Condition not met
CC1CCN(C(=O)c2ccccc2-n2cnc(Cn3nc(-c4ccc(Cl)cc4)n(C[C@H](O)C(F)(F)F)c3=O)n2)C(C)C1 (stereo partly shown) [Example 266]
Condition not met

## Input Decide: IC50 of CC(C)(O)CNc1ccncc1-n1cnc(Cn2nc(-c3ccc(Cl)cc3)n(C[C@H](O)C(F)(F)F)c2=O)n1 [Example 2] strictly below 600 nM?
## Output Condition met

## Input Decide: IC50 of CC(C)(C)OC(=O)CNc1ccncc1-n1cnc(Cn2nc(-c3ccc(Cl)cc3)n(C[C@H](O)C(F)(F)F)c2=O)n1 [Example 16] strictly below 600 nM?
## Output Condition not met

---

- MEASURED ON: human V2 receptor (Homo sapiens, UniProt P30518)
- Construct: expressed in transfected cells; host or cells: CHO K1 (ATCC) expressing firefly luciferase under a CRE-responsive promoter
- Sequence (P30518 whole entry): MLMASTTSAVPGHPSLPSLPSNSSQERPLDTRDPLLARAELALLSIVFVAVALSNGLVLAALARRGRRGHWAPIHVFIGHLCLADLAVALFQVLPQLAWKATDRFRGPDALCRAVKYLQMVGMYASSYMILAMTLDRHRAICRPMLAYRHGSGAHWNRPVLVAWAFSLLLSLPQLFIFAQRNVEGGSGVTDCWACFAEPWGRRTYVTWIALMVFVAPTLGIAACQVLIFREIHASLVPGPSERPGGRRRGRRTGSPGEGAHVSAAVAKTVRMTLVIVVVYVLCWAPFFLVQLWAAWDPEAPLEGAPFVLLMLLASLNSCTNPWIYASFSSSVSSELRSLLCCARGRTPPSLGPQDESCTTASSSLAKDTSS
- METHOD DESCRIPTION: Cellular in vitro assay for determining vasopressin receptor activity, V2 receptor cell line (CHO, CRE-luciferase)
- Format: cell-based
- ASSAY SETUP: CHO cell line transfected with human V2 receptor; [Arg8]-vasopressin at EC50 concentration, 3 hours; read-out: IC50 hV2
ENDPOINT NAME: pIC50
Entry type: numeric. Quantity: pIC50, the -log10 of concentration in molar units.

The following compounds have reported results that may help.
Cc1ccccc1C(=O)Nc1ncccc1-n1cnc(Cn2nc(-c3ccc(Cl)cc3)n(C[C@H](O)C(F)(F)F)c2=O)n1
5.78
O=C(Nc1ccc(F)cc1O)c1ccccc1-n1cnc(Cn2nc(-c3ccc(Cl)cc3)n(C[C@H](O)C(F)(F)F)c2=O)n1
7.03
O=C(Nc1ncccc1-n1cnc(Cn2nc(-c3ccc(Cl)cc3)n(C[C@H](O)C(F)(F)F)c2=O)n1)C1CCCCC1
5.73
CC1(C(=O)Nc2ncccc2-n2cnc(Cn3nc(-c4ccc(Cl)cc4)n(C[C@H](O)C(F)(F)F)c3=O)n2)CC1
5.66
CN1CCC(C(=O)Nc2ncccc2-n2cnc(Cn3nc(-c4ccc(Cl)cc4)n(C[C@H](O)C(F)(F)F)c3=O)n2)CC1
5.17
CC1CCC(NC(=O)c2ccccc2-n2cnc(Cn3nc(-c4ccc(Cl)cc4)n(C[C@H](O)C(F)(F)F)c3=O)n2)CC1 (some centres unmarked)
6.24
Cc1cccc(C(=O)Nc2ncccc2-n2cnc(Cn3nc(-c4ccc(Cl)cc4)n(C[C@H](O)C(F)(F)F)c3=O)n2)c1
5.14
O=C(CN1CCCC1=O)Nc1ncccc1-n1cnc(Cn2nc(-c3ccc(Cl)cc3)n(C[C@H](O)C(F)(F)F)c2=O)n1
5.90
O=C(Nc1cccnc1-n1cnc(Cn2nc(-c3ccc(Cl)cc3)n(C[C@H](O)C(F)(F)F)c2=O)n1)C1CC1
6.44
CNCC(=O)Nc1ncccc1-n1cnc(Cn2nc(-c3ccc(Cl)cc3)n(C[C@H](O)C(F)(F)F)c2=O)n1
6.25

## Input Report pIC50, nothing else, for this compound: CC(C)CN(C)C(=O)c1ccccc1-n1cnc(Cn2nc(-c3ccc(Cl)cc3)n(C[C@H](O)C(F)(F)F)c2=O)n1
## Output 5.72

## Input Report pIC50, nothing else, for this compound: O=C(NCC1CS(=O)(=O)C1)c1ccccc1-n1cnc(Cn2nc(-c3ccc(Cl)cc3)n(C[C@H](O)C(F)(F)F)c2=O)n1
## Output 5.51

## Input Report pIC50, nothing else, for this compound: COC1CCCN(C(=O)c2ccccc2-n2cnc(Cn3nc(-c4ccc(Cl)cc4)n(C[C@H](O)C(F)(F)F)c3=O)n2)C1 (mixture of isomers)
## Output 5.98

## Input Report pIC50, nothing else, for this compound: O=c1n(Cc2ncn(-c3cnccc3N3CCC(F)(F)CC3)n2)nc(-c2ccc(Cl)cc2)n1C[C@H](O)C(F)(F)F
## Output 6.55

## Input Report pIC50, nothing else, for this compound: O=C(CC1CCCC1)Nc1ncccc1-n1cnc(Cn2nc(-c3ccc(Cl)cc3)n(C[C@H](O)C(F)(F)F)c2=O)n1
## Output 5.62

## Input Report pIC50, nothing else, for this compound: CSCC(=O)Nc1ncccc1-n1cnc(Cn2nc(-c3ccc(Cl)cc3)n(C[C@H](O)C(F)(F)F)c2=O)n1
## Output 5.72

---

- MEASURED ON: human V1a receptor (Homo sapiens, UniProt P37288)
- Construct: expressed in transfected cells; host or cells: CHO K1 (ATCC), also stably transfected with a modified aequorin
- Sequence (P37288 whole entry): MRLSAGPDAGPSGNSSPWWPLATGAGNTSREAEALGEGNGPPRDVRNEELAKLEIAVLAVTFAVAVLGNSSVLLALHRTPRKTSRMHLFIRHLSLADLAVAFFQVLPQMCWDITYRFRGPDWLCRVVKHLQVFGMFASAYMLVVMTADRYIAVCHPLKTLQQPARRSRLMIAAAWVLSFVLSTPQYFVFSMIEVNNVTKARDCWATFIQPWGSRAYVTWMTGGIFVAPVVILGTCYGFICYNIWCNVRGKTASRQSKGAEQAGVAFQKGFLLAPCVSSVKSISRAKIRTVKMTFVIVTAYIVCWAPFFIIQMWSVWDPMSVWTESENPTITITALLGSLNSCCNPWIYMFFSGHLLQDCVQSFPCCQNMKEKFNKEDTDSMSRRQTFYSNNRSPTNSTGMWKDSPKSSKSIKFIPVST
- METHOD DESCRIPTION: Cellular in vitro assay for determining vasopressin receptor activity, V1a receptor cell line (CHO, aequorin luminescence)
- Assay type: cell-based
- ASSAY SETUP: selectivity ratio IC50 hV2 / IC50 hV1a
Consider the reported ratio IC50 hV2/hV1a of an entry and match it to a band in L: < 20; M: ≥ 20 and < 60; H: ≥ 60

Reference set, count: 5
COCC1CCCN1C(=O)c1cccnc1-n1nc(Cn2nc(-c3ccc(Cl)cc3)n(C[C@H](O)C(F)(F)F)c2=O)nc1C(=O)N1CCS(=O)(=O)CC1 (mixture of isomers) [Example 532]
L
O=C(c1ncccc1-n1cnc(Cn2nc(-c3ccc(Cl)cc3)n(C[C@@H](O)C(F)(F)F)c2=O)n1)N1CCC[C@@H]1C(F)(F)F [Example 478]
M
O=C(Nc1ncccc1-n1cnc(Cn2nc(-c3ccc(Cl)cc3)n(C[C@H](O)C(F)(F)F)c2=O)n1)c1csnn1 [Example 100]
M
CC(C)(N)CNC(=O)c1nc(Cn2nc(-c3ccc(Cl)cc3)n(C[C@H](O)C(F)(F)F)c2=O)nn1-c1cnccc1C(=O)N[C@H]1C[C@H]1F (racemic) [Example 535]
M
O=C(NCc1ccco1)c1ccccc1-n1cnc(Cn2nc(-c3ccc(Cl)cc3)n(C[C@H](O)C(F)(F)F)c2=O)n1 [Example 315]
M

## Input Which ratio IC50 hV2/hV1a category applies to Cn1nccc1CNC(=O)c1ccccc1-n1cnc(Cn2nc(-c3ccc(Cl)cc3)n(C[C@H](O)C(F)(F)F)c2=O)n1 [Example 206] here?
## Output H

---

- MEASURED ON: human V2 receptor (Homo sapiens, UniProt P30518)
- Construct: expressed in transfected cells; host or cells: CHO K1 (ATCC) expressing firefly luciferase under a CRE-responsive promoter
- METHOD DESCRIPTION: Cellular in vitro assay for determining vasopressin receptor activity, V2 receptor cell line (CHO, CRE-luciferase)
- Type: cell-based
- ASSAY SETUP: CHO cell line transfected with human V2 receptor; [Arg8]-vasopressin at EC50 concentration, 3 hours; read-out: IC50 hV2
ENDPOINT NAME: IC50 (nM)
Provide only the numeric value, understood in nM.

C=CCC(=O)Nc1ncccc1-n1cnc(Cn2nc(-c3ccc(Cl)cc3)n(C[C@H](O)C(F)(F)F)c2=O)n1
1350
O=C1CN(c2ccncc2-n2cnc(Cn3nc(-c4ccc(Cl)cc4)n(C[C@H](O)C(F)(F)F)c3=O)n2)CCN1
3000
CN1CCC(N(C)C(=O)c2ccccc2-n2cnc(Cn3nc(-c4ccc(Cl)cc4)n(C[C@H](O)C(F)(F)F)c3=O)n2)C1 (mixture of isomers)
9650
NC(=O)CCNc1ccncc1-n1cnc(Cn2nc(-c3ccc(Cl)cc3)n(C[C@H](O)C(F)(F)F)c2=O)n1
1480

## Input Report IC50, nothing else, for this compound: CN1CCN(C(=O)c2ccccc2-n2cnc(Cn3nc(-c4ccc(Cl)cc4)n(C[C@H](O)C(F)(F)F)c3=O)n2)CC1
## Output 2450

## Input Report IC50, nothing else, for this compound: O=C(Nc1cccnc1-n1cnc(Cn2nc(-c3ccc(Cl)cc3)n(CC(O)C(F)(F)F)c2=O)n1)C1CC1F (mixture of isomers)
## Output 950

## Input Report IC50, nothing else, for this compound: O=c1n(Cc2ncn(-c3cnccc3NCC3(O)CC3)n2)nc(-c2ccc(Cl)cc2)n1C[C@H](O)C(F)(F)F
## Output 125

## Input Report IC50, nothing else, for this compound: O=C(Nc1cccnc1-n1cnc(Cn2nc(-c3ccc(Cl)cc3)n(C[C@H](O)C(F)(F)F)c2=O)n1)C1CC1F (stereo partly shown) [Example 54]
## Output 407

## Input Report IC50, nothing else, for this compound: O=C(c1ccccc1-n1cnc(Cn2nc(-c3ccc(Cl)cc3)n(C[C@H](O)C(F)(F)F)c2=O)n1)N1CCC(O)C1 (mixture of isomers)
## Output 1540

## Input Report IC50, nothing else, for this compound: O=C1CCC(NC(=O)c2ccccc2-n2cnc(Cn3nc(-c4ccc(Cl)cc4)n(CC(O)C(F)(F)F)c3=O)n2)CN1 (single isomer, unassigned) [Example 193]
## Output 3100

## Input Report IC50, nothing else, for this compound: CN1CC(C(=O)Nc2ncccc2-n2cnc(Cn3nc(-c4ccc(Cl)cc4)n(C[C@H](O)C(F)(F)F)c3=O)n2)CC1=O (stereo partly shown)
## Output 1550

## Input Report IC50, nothing else, for this compound: C[C@H](NC(=O)c1ccccc1-n1cnc(Cn2nc(-c3ccc(Cl)cc3)n(C[C@H](O)C(F)(F)F)c2=O)n1)C(N)=O
## Output 445

## Input Report IC50, nothing else, for this compound: O=C(NCC(F)(F)F)c1cccc(Cl)c1-n1cnc(Cn2nc(-c3ccc(Cl)cc3)n(C[C@@H](O)C(F)(F)F)c2=O)n1
## Output 3700
